Where do these numbers come from? They come from patent US20050118674A1.

Could you please report measured First-Order Deamidation Halftimes of GlyXxxAsnYyyGly for the items listed next?
# ASSAY DETAILS: First-order nonenzymatic deamidation of pentapeptides in Tris buffer
# Assay type: physicochemical
# CONDITION CONTEXT: pH 7.4, 37.0° C., 0.15 M Tris HCl; Asn pentapeptides
Where no end group is shown, it is not given here.
Note: a bare number is incomplete; add the unit.

Example substances with recorded First-Order Deamidation Halftimes of GlyXxxAsnYyyGly:
GlyThrAsnAmCysGly    34.4 days
GlyAmCysAsnGluGly (CNEG; not fully specified (N-terminus); printed as GlyAmCysAsnGluGly)    45 days

Attention now turns to another entry.
Entry GlyGluAsnAmCysGly has what First-Order Deamidation Halftimes of GlyXxxAsnYyyGly?
32.1 days
